experiment: Microsomal metabolism test, human liver microsomes; conditions: HLM incubation of BocMA
readout: Detection after incubation of BocMA (LC–QToF–MS)

[
  {
    "compound": "CNC(C)Cc1ccc(O)cc1 (stereo not drawn) [4OHMA, 4-hydroxy methamphetamine, reference compound]",
    "measured value": "not detected"
  },
  {
    "compound": "C[C@H](NC(=O)OC(C)(C)CO)C(=O)c1ccccc1",
    "measured value": "produced"
  },
  {
    "compound": "CC(C(O)c1ccccc1)N(C)C(=O)OC(C)(C)C (single isomer, unassigned) [M1–D1, N-tert-butoxycarbonylephedrine]",
    "measured value": "produced"
  },
  {
    "compound": "CC(N)Cc1ccc(O)cc1 (stereo not drawn) [4OHAP, 4-hydroxy amphetamine, reference compound]",
    "measured value": "not detected"
  },
  {
    "compound": "C[C@@H](Cc1ccc(O)cc1)N(C)C(=O)OC(C)(C)C",
    "measured value": "produced"
  },
  {
    "compound": "CC(C(=O)c1ccccc1)N(C)C(=O)OC(C)(C)C (stereo not drawn) [BocMC, reference compound]",
    "measured value": "not detected"
  },
  {
    "compound": "CC(NC(=O)OC(C)(C)C)C(O)c1ccccc1 (stereo not drawn)",
    "measured value": "not detected"
  },
  {
    "compound": "CC1N(C)C(O)(OC(C)(C)C)OC1(O)c1ccccc1 (stereo not drawn)",
    "measured value": "produced"
  },
  {
    "compound": "CN[C@@H](C)Cc1ccccc1",
    "measured value": "not detected"
  },
  {
    "compound": "CC(NC(=O)OC(C)(C)C)C(=O)c1ccccc1 (stereo not drawn)",
    "measured value": "produced"
  },
  {
    "compound": "CC(C(O)c1ccccc1)N(C)C(=O)OC(C)(C)C (single isomer, unassigned) [M1–D2, N-tert-butoxycarbonylpseudoephedrine]",
    "measured value": "produced"
  },
  {
    "compound": "CC(Cc1ccccc1)NC(=O)OC(C)(C)C (stereo not drawn)",
    "measured value": "produced"
  }
]

====

test: Microsomal metabolism test, rat liver microsomes; conditions: RLM test
readout: Incubation time at which peak intensity was highest

[
  {
    "compound": "CC(Cc1ccccc1)N(C)C(=O)OC(C)(C)C (centres unmarked) [BocMA, N-tert-butoxycarbonylmethamphetamine]",
    "measured value": "0 min"
  },
  {
    "compound": "CC1N(C)C(O)(OC(C)(C)C)OC1(O)c1ccccc1 (centres unmarked) [M6]",
    "measured value": "13 min"
  },
  {
    "compound": "C[C@H](NC(=O)OC(C)(C)CO)C(=O)c1ccccc1 [M5]",
    "measured value": "60 min"
  },
  {
    "compound": "CC(NC(=O)OC(C)(C)C)C(=O)c1ccccc1 (centres unmarked) [M4]",
    "measured value": "20 min"
  },
  {
    "compound": "CC(C(O)c1ccccc1)N(C)C(=O)OC(C)(C)C (centres unmarked) [M1]",
    "measured value": "3 min"
  }
]

====

assay: Microsomal metabolism test, human liver microsomes; details: human, microsomes, pH 7.4

[
  {
    "compound": "CC(Cc1ccccc1)N(C)C(=O)OC(C)(C)C (stereo not shown)",
    "microsomal CLint at 1 μg/mL": "220 µL/min/mg"
  }
]

Origin of values: paper PMC9715518
